# experimental_details: Cytotoxicity against human MT4 cells
# Type: cell-based
CC50 reference
recorded_endpoint: CC50 (µM)

test_smiles	qualifier	value_measured
N#C[C@]1(CO)O[C@@H](c2cc(F)c3c(N)ncnn23)[C@H](O)[C@@H]1O	>	93
C#C[C@]1(CO)O[C@@H](c2ccc3c(N)ncnn23)[C@H](F)[C@@H]1O	>	106
N#C[C@]1(CO)O[C@@H](c2ccc3c(N)ncnn23)[C@H](O)[C@@H]1O	>	53
[N-]=[N+]=N[C@]1(CO)O[C@@H](c2ccc3c(N)nc(F)nn23)[C@H](F)[C@@H]1O	=	32
CC(C)(C)C(=O)SCCOP(=O)(OCCSC(=O)C(C)(C)C)OC[C@@]1(C#N)O[C@@H](c2ccc3c(N)ncnn23)[C@H](O)[C@@H]1O	=	7.3

* * *

CC50 reference
# experimental_details: Cytotoxicity against human Hep2 cells
# Type: cell-based, HEp-2

test_smiles	CC50
C#C[C@]1(CO)O[C@@H](c2ccc3c(N)ncnn23)[C@H](F)[C@@H]1O	> 100 µM
CC(C)(C)C(=O)SCCOP(=O)(OCCSC(=O)C(C)(C)C)OC[C@@]1(C#N)O[C@@H](c2ccc3c(N)ncnn23)[C@H](O)[C@@H]1O	39 µM
N#C[C@]1(CO)O[C@@H](c2ccc3c(N)ncnn23)[C@H](O)[C@@H]1O	> 50 µM
N#C[C@]1(CO)O[C@@H](c2cc(F)c3c(N)ncnn23)[C@H](O)[C@@H]1O	> 100 µM
[N-]=[N+]=N[C@]1(CO)O[C@@H](c2ccc3c(N)nc(F)nn23)[C@H](F)[C@@H]1O	> 100 µM
